Tested on: stable HCV 2a JFH-1 Rluc replicon cells (L31 present in NS5A)
Assay: Renilla luciferase HCV replicon reporter assay, genotype 2a JFH-1
Format: cell-based
Settings: Hepatitis C virus, read-out: 2a JFH (nM), genotype 2a JFH-1 replicon (L31 in NS5A), stable cells
Protocol: Evaluation of Cell-Based Anti-HCV Activity: Antiviral potency (EC50) was determined using a Renilla luciferase (RLuc)-based HCV replicon reporter assay. […] 72 hours later, cells were lysed and Renilla luciferase activity quantified as recommended by the manufacturer (Promega-Madison, Wis.). […]
For each entry below, report its EC50 value.
Write the number in nM without appending the unit.

Name the reported EC50 value associated with the molecule COC(=O)N[C@H](C(=O)N1[C@@H](C)CC[C@H]1c1ncc(-c2ccc3c(c2)COc2cc4c(ccc5nc([C@@H]6CC[C@H](C(C)C)N6C(=O)[C@@H](NC(=O)OC)C6CCOCC6)[nH]c54)cc2-3)[nH]1)C(C)C
0.051

Return reported EC50; argument: COC[C@H]1C[C@@H](c2ncc(-c3ccc4c(c3)COc3cc5c(ccc6nc([C@@H]7C[C@H](COC)CN7C(=O)[C@@H](NC(=O)OC)[C@@H](C)OC)[nH]c65)cc3-4)[nH]2)N(C(=O)[C@@H](NC(=O)OC)[C@@H](C)OC)C1
0.027

Entry under review: COC(=O)N[C@H](C(=O)N1[C@H](c2ncc(-c3ccc4c(c3)COc3cc5c(ccc6nc([C@@H]7CC[C@H](C)N7C(=O)[C@@H](NC(=O)OC)C7CCOCC7)[nH]c65)cc3-4)[nH]2)C[C@@H]2CCC[C@@H]21)C(C)C . Reported EC50?
0.012

# query: EC50 of entry CC[C@H]1CC[C@@H](c2nc3ccc4cc5c(cc4c3[nH]2)OCc2cc(-c3cnc([C@@H]4C[C@@H]6CCC[C@@H]6N4C(=O)[C@@H](NC(=O)OC)C(C)C)[nH]3)ccc2-5)N1C(=O)[C@@H](NC(=O)OC)C1CCOCC1
0.02

These data points were gathered from patent US10800789B2.
